B1: EFHC1 (parent)
chain: NIYYYLEDDSMSVIEPVVENSGIL

- Variants of: B1
- ASSAY_NOTES: protein stability index of a GFP-peptide fusion (GPS, HEK-293T) (PSI 1-6); higher = more stable;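 note: lentivirally expressed fusions sorted by FACS into six bins by GFP to DsRed ratio, PSI derived from sequencing read proportions per bin multiplied by bin number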
- TEST_PARAMETERS: c terminus: a fixed tail appended
protein stability index by entry:
REPORTED_METRIC: protein stability index

MUTANT_LABEL: I2R
QUANTITATIVE_RESULT: 3.03
//
MUTANT_LABEL: N1K
QUANTITATIVE_RESULT: 1.09
//
MUTANT_LABEL: G22R
QUANTITATIVE_RESULT: 1.55
//
MUTANT_LABEL: I23E
QUANTITATIVE_RESULT: 3.12
